target: EGFR (Homo sapiens, UniProt P00533); construct: purchased DiscoverX (KINOMEscan service); host or cells: E. coli BL21-derived host (T7 phage) or HEK-293; assay: DiscoverX KINOMEscan competition binding assay; conditions: compound 10 µM; lower values = higher affinity; below 35% = significant binding
Sequence (P00533 25-1210): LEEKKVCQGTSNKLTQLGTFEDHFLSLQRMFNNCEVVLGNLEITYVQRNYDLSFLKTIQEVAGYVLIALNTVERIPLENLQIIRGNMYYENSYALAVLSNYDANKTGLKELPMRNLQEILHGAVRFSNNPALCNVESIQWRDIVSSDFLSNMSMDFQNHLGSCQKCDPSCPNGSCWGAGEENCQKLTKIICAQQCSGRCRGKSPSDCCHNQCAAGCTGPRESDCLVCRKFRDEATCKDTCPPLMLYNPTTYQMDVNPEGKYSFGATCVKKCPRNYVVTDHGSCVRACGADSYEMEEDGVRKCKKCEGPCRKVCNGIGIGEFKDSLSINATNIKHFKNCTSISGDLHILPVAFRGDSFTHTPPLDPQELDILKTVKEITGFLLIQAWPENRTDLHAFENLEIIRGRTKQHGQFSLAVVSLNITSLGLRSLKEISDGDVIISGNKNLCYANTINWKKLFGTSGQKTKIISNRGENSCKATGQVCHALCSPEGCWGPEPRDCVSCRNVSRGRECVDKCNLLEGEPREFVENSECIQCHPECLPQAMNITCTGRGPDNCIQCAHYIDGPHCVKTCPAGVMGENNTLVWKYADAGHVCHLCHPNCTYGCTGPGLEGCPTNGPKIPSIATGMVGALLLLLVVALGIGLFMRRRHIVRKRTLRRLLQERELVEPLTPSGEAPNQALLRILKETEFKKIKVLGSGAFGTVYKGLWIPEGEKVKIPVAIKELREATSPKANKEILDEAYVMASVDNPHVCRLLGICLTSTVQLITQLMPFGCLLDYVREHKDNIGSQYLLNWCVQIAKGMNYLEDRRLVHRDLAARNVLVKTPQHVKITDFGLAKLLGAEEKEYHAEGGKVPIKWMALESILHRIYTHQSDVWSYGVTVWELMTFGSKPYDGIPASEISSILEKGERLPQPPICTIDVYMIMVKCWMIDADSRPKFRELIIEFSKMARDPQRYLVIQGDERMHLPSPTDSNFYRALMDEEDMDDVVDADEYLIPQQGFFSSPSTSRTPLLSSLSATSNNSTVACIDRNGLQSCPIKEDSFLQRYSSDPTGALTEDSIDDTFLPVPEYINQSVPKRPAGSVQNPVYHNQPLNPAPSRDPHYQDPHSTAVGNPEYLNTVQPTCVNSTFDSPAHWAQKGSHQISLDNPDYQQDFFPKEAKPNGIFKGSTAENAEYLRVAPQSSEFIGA
Task for the reader: assign each of the following molecules its reported % control, EGFR (DiscoverX).
State the value, then name its unit.

Below, each entry is followed by its recorded % control, EGFR (DiscoverX) result.
Molecule	Assayed system	% control, EGFR (DiscoverX)
O=C(Oc1ccc2c3c(c(=O)oc2c1)CCC3)c1cccc(Cl)c1 [DS76514]	EGFR (Homo sapiens, UniProt P00533)	87 % control
O=C1C[C@@H](c2noc(-c3ccc[nH]c3=O)n2)CN1Cc1ccccc1 [DS52225]	EGFR (Homo sapiens, UniProt P00533)	100 % control
COc1ccc(-c2nn(C(C)=O)c3c2C(=O)CC(C)(C)C3)cc1 [DS18339]	EGFR (Homo sapiens, UniProt P00533)	97 % control
COCCNC(=O)NC(C)Cc1ccc(O)cc1 (centres unmarked) [K001MM004]	EGFR (Homo sapiens, UniProt P00533)	100 % control

Switching to the query record.
Reported % control, EGFR (DiscoverX) for C[C@H](COCC(F)(F)F)NC(=O)Cc1n[nH]c(=O)c2ccccc12 [DS04644] was 100 % control

====

molecular target: ErbB2 (Homo sapiens, UniProt P04626); construct: purchased DiscoverX (KINOMEscan service); host or cells: E. coli BL21-derived host (T7 phage) or HEK-293; assay: Eurofins in vitro kinase inhibition assay; assay type: biochemical; conditions: compound 20 µM; mean (SD); above 50% significant, 25-50% weak
Sequence (P04626 23-1255): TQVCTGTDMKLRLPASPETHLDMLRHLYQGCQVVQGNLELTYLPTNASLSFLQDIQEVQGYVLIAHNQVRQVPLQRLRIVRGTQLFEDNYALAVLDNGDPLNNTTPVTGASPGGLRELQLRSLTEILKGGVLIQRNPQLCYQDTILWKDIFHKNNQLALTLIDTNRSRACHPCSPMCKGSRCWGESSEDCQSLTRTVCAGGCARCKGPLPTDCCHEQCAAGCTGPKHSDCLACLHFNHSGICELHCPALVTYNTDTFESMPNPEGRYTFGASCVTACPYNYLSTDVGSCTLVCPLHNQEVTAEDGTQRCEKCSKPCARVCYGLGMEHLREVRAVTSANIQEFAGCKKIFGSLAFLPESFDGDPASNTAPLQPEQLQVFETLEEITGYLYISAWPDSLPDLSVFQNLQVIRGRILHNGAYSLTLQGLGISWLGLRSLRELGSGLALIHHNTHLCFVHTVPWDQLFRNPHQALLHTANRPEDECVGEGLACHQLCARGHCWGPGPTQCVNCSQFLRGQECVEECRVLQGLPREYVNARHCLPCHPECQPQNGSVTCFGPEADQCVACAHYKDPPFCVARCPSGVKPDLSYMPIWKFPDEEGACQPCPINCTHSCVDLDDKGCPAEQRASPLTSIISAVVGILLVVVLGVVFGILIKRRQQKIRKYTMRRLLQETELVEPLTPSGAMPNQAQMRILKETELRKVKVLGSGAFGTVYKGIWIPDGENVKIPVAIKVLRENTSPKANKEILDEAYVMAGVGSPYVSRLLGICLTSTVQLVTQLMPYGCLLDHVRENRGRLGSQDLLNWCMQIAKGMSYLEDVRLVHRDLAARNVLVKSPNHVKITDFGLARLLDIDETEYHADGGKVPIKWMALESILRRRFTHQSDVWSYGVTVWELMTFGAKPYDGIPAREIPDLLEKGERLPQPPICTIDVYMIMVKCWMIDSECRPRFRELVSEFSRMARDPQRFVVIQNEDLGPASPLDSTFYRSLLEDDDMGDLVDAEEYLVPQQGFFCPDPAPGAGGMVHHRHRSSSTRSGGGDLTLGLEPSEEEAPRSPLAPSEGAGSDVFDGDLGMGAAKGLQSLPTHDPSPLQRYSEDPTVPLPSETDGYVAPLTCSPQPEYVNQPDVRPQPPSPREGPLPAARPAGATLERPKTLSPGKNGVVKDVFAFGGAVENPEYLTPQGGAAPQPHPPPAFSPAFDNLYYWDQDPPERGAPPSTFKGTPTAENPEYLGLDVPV
Reported endpoint: % inhibition of control activity, ErbB2 (Eurofins)

Below, each entry is followed by its recorded % inhibition of control activity, ErbB2 (Eurofins) result.
Compound	Val
CC(=O)c1cc(CC(=O)N(C)C[C@H]2CCCCO2)cs1 [DS84326]	0.2 (2.8) % inhibition
O=C(Cn1cnc2c(cnn2CCO)c1=O)NCc1ccccc1 [DS05168]	2.8 (1.6) % inhibition

Switching to the query record.
Reported % inhibition of control activity, ErbB2 (Eurofins) for COCCCNC(=O)c1nc2c3c4c(sc3ncn2n1)COC(C)(C)C4 [DS11689] was 0.1 (2.1) % inhibition

====

target: BRAF (Homo sapiens, UniProt P15056); construct: purchased DiscoverX (KINOMEscan service); host or cells: E. coli BL21-derived host (T7 phage) or HEK-293; test: DiscoverX KINOMEscan competition binding assay; conditions: compound 10 µM; lower values = higher affinity; below 35% = significant binding
Sequence (P15056 whole entry): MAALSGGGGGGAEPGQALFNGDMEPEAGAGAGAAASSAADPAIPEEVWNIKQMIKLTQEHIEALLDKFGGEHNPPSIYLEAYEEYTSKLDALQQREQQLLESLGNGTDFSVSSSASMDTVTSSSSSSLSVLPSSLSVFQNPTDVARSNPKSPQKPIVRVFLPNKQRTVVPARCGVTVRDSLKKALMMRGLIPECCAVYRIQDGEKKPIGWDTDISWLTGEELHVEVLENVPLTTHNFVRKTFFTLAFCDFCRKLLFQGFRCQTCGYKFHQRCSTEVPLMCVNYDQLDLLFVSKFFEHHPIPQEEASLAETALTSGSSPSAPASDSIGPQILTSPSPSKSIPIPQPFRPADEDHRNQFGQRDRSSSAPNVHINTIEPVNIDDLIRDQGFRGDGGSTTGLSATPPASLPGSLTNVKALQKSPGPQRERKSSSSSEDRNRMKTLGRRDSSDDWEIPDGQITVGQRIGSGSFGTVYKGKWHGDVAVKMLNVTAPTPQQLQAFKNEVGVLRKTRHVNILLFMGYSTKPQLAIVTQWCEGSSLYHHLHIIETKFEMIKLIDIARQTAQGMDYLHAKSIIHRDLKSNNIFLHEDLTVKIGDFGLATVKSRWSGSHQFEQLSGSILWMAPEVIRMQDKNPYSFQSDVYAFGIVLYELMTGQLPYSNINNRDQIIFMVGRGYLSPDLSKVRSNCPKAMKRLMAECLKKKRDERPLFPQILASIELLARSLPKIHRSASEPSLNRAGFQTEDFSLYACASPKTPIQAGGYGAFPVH
Task for the reader: assign each of the following compounds its reported % control, BRAF (DiscoverX).
Numbers only, in % control.

Working through the 3 compounds below one at a time, give % control, BRAF (DiscoverX) for each.
1. CC(C)OCC(O)CN1CCN(C(=O)c2cccc(Cl)c2)CC1 (stereo not shown)
2. COCCCNC(=O)c1nc2c3c4c(sc3ncn2n1)CC[C@H](C)C4
3. COCCNC(=O)NC(C)Cc1ccc(O)cc1 (stereo not shown)

Out:
[89, 100, 100]

Working through the 6 compounds below one at a time, give % control, BRAF (DiscoverX) for each.
1. CCc1nccc(-c2nccn2C(Cn2cccn2)c2ccccc2)n1 (stereo not shown)
2. Cc1ccccc1Cn1cnc2c(nnn2-c2ccccc2)c1=O
3. Cc1ccc(/C=C2\N=C(c3cccc(S(=O)(=O)N(C)C)c3)OC2=O)s1
4. Cc1[nH]c2nc3c(c(=O)n(Cc4ccccc4)c(=O)n3C)n2c1C
5. O=C(NCC1CC1)Nc1ccc(N2CCOC2=O)cc1
6. C[C@H](COCC(F)(F)F)NC(=O)Cc1n[nH]c(=O)c2ccccc12

Out:
[99, 95, 100, 95, 100, 97]

Kindly note: BRAF (Homo sapiens, UniProt P15056), CCCCn1nnnc1CN1CCc2nn(CC)c(=O)cc2C1 , % control, BRAF (DiscoverX) value reported: 99

====

Task for the reader: assign each of the following compounds its reported % control, MET (DiscoverX).
target: MET (Homo sapiens, UniProt P08581); construct: purchased DiscoverX (KINOMEscan service); host or cells: E. coli BL21-derived host (T7 phage) or HEK-293; assay: DiscoverX KINOMEscan competition binding assay; details: compound 10 µM; lower values = higher affinity; below 35% = significant binding
Sequence (P08581 25-1390): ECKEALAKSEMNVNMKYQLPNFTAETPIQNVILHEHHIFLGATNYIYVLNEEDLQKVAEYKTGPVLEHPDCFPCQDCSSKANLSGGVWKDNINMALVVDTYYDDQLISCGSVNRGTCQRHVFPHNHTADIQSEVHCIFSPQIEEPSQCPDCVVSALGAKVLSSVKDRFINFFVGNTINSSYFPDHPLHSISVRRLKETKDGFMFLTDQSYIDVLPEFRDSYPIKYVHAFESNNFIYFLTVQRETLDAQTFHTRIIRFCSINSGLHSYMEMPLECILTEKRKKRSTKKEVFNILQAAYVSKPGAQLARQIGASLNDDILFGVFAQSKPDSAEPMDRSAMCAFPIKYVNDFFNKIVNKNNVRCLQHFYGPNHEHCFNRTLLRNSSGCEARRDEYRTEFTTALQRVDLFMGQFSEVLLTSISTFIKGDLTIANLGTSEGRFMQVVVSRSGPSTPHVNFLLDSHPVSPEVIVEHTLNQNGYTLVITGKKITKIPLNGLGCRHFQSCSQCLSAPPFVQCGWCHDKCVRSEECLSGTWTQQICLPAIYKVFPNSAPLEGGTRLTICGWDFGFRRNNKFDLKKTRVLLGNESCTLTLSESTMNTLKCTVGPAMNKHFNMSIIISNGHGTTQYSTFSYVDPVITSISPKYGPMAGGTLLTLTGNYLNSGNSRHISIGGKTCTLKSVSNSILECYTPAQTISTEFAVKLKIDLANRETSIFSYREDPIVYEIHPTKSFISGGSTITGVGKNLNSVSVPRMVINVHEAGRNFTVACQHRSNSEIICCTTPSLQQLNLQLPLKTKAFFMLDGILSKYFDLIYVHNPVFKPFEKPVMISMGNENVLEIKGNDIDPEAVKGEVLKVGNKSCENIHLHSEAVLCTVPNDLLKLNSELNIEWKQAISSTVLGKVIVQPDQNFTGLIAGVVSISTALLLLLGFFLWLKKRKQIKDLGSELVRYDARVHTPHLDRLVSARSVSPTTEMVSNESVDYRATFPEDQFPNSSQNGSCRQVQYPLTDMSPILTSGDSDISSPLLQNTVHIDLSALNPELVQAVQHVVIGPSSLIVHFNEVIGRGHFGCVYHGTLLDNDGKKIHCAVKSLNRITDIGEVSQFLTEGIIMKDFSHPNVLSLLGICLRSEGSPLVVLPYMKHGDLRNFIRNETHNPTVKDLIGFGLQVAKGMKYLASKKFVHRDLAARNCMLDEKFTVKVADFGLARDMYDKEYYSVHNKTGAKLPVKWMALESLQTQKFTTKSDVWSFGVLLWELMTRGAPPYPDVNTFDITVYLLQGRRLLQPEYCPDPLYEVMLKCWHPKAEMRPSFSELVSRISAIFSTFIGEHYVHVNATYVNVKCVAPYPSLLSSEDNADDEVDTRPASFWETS
Numbers only, in % control.

Compound	Assayed system	% control, MET (DiscoverX) / % control
CN(C)S(=O)(=O)c1cccc(C2=N/C(=C\c3cccc(F)c3)C(=O)O2)c1	MET (Homo sapiens, UniProt P08581)	100
COCCCNC(=O)c1nc2c3c4c(sc3ncn2n1)CC[C@H](C)C4	MET (Homo sapiens, UniProt P08581)	100
CCc1nccc(-c2nccn2C(Cn2cccn2)c2ccccc2)n1 (stereo not shown)	MET (Homo sapiens, UniProt P08581)	99

Working through the 4 compounds below one at a time, give % control, MET (DiscoverX) for each.
1. Cc1[nH]c2nc3c(c(=O)n(Cc4ccccc4)c(=O)n3C)n2c1C
2. CCc1nnc(NC(=O)c2nn(-c3ccc(C)cc3)ccc2=O)s1
3. O=C(Oc1ccc2c3c(c(=O)oc2c1)CCC3)c1cccc(Cl)c1
4. Cc1ccc(-n2cnnn2)cc1NC(=O)NCC1CC1

Out:
[87, 97, 90, 84]

====

Task for the reader: assign each of the following compounds its reported % inhibition of control activity, ErbB2 (Eurofins).
target: ErbB2 (Homo sapiens); construct: purchased DiscoverX (KINOMEscan service); host or cells: E. coli BL21-derived host (T7 phage) or HEK-293; assay: Eurofins in vitro kinase inhibition assay; type: biochemical; conditions: compound 20 µM; mean (SD); above 50% significant, 25-50% weak

Below, each entry is followed by its recorded % inhibition of control activity, ErbB2 (Eurofins) result.
Compound	Val
CCc1nccc(-c2nccn2C(Cn2cccn2)c2ccccc2)n1 (centres unmarked)	-7.2 (5.7) % inhibition
CCOCCCNC(=O)c1nc2c3c4c(sc3ncn2n1)CC[C@@H](C)C4	-1.4 (0.8) % inhibition
Cc1ccc(/C=C2\N=C(c3cccc(S(=O)(=O)N(C)C)c3)OC2=O)s1	-8.3 (1.2) % inhibition

Working through the 8 compounds below one at a time, give % inhibition of control activity, ErbB2 (Eurofins) for each.
1. COCCCNC(=O)c1nc2c3c4c(sc3ncn2n1)CC[C@H](C)C4
2. Cc1ccc(-n2cnnn2)cc1NC(=O)NCC1CC1
3. O=C1C[C@@H](c2noc(-c3ccc[nH]c3=O)n2)CN1Cc1ccccc1
4. COC(=O)Cc1ccc(Oc2ncnc3sc4c(c23)CC[C@@H](C)C4)cc1 (racemic)
5. Cc1cc(=O)n2nc(N(C)CC(=O)NCc3cccs3)sc2n1
6. COc1ccc(-c2nn(C(C)=O)c3c2C(=O)CC(C)(C)C3)cc1
7. CC(C)n1ccc(=O)nc1SC1CCN(c2ccccc2F)C1=O (centres unmarked)
8. Cc1[nH]c2nc3c(c(=O)n(Cc4ccccc4)c(=O)n3C)n2c1C

Out:
-1.7 (0.8) % inhibition
10.5 (23.6) % inhibition
4.5 (4.9) % inhibition
-1.3 (1.8) % inhibition
9.8 (21.9) % inhibition
0.7 (1.1) % inhibition
-3.3 (0.5) % inhibition
3.1 (3.3) % inhibition

Working through the 3 compounds below one at a time, give % inhibition of control activity, ErbB2 (Eurofins) for each.
1. O=C(O)c1cncnc1NCc1nc(-c2cnccn2)n[nH]1
2. CC1(C)C2CC=C(COC(=O)c3cnn4cccnc34)C1C2 (centres unmarked)
3. CN(C)S(=O)(=O)c1cccc(C2=N/C(=C\c3cccc(F)c3)C(=O)O2)c1

Out:
1: -2.8 (0.7) % inhibition; 2: -1.6 (1.9) % inhibition; 3: -4.6 (2.9) % inhibition

Working through the 4 compounds below one at a time, give % inhibition of control activity, ErbB2 (Eurofins) for each.
1. O=C(Oc1ccc2c3c(c(=O)oc2c1)CCC3)c1cccc(Cl)c1
2. CCc1nnc(NC(=O)c2nn(-c3ccc(C)cc3)ccc2=O)s1
3. O=C(NCC1CC1)Nc1ccc(N2CCOC2=O)cc1
4. COCCCNC(=O)c1nc2c3c4c(sc3ncn2n1)CCC[C@H]4C

Out:
["-0.6 (1.0) % inhibition", "5.8 (0.2) % inhibition", "-0.6 (1.1) % inhibition", "-2.5 (1.6) % inhibition"]

Working through the 2 compounds below one at a time, give % inhibition of control activity, ErbB2 (Eurofins) for each.
1. C[C@H](COCC(F)(F)F)NC(=O)Cc1n[nH]c(=O)c2ccccc12
2. Cc1ccc(-n2cnnn2)cc1NC(=O)NC1CC1

Out:
1: -7.4 (1.0) % inhibition; 2: -3.4 (1.0) % inhibition
